Can you tell me IC50 for the items I'm about to list?
Molecular target: human plasma renin activity (PRA) (Homo sapiens, UniProt P00797)
Construct: from tissue; host or cells: human plasma pool
Sequence (P00797 67-406): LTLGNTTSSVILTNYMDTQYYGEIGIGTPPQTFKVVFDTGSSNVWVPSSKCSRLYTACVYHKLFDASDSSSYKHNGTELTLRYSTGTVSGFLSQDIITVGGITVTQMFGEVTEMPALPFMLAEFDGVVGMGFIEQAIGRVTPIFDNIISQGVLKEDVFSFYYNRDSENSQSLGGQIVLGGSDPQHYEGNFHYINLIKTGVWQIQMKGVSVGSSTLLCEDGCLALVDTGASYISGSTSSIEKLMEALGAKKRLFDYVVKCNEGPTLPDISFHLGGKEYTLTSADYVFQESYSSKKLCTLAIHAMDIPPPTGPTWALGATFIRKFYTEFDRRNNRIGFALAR
Experiment: Inhibition of human plasma renin activity (PRA) in vitro, angiotensin I released measured by radioimmunoassay
Format: biochemical
Settings: read-out: Inhibition of human PRA -log IC50 M pH 7.4 (converted)
Starred links: 1 amine or outer side, 2 acyl side, 3 side chain; linkers in the order of their positions; H or OH if unused. Non-standard residues stand in square brackets, D forms with d. Residues, ends and D or L forms follow the SMILES beside them. *: point of attachment. His(τ-Me) = Cn1cnc(C[C@H](N)C(=O)O)c1; Sta = CC(C)C[C@H](N)[C@@H](O)CC(=O)O; X10 = Cc1nc(C(N[*:1])C(=O)[*:2])cs1; Isovaleryl = CC(C)CC(=O)*; Boc = CC(C)(C)OC(=O)*; X4 = c1ccc(C*)nc1; tBu = CC(C)(C)*
Report the value in nM with no unit label.

Prompt: What does the record list as IC50 for CC(C)CC(=O)N[C@@H](Cc1ccccc1)C(=O)N[C@@H](Cc1cn(C)cn1)C(=O)N[C@@H](CC(C)C)[C@@H](O)CC(=O)N[C@@H](C)C(=O)N[C@@H](CC(C)C)[C@@H](O)CC(=O)O [SR 43761, iVa--Phe--(tauMe)His--Sta--Ala--Sta--OH] (Isovaleryl-F[His(τ-Me)][Sta]A[Sta]-OH) ?
Completion: 151

Prompt: What does the record list as IC50 for COC(=O)C[C@H](O)[C@H](CC(C)C)NC(=O)[C@H](C)NC(=O)C[C@H](O)[C@H](CC(C)C)NC(=O)[C@H](COCc1ccccn1)NC(=O)[C@H](Cc1ccccc1)NC(=O)OC(C)(C)C [SR 43555] (Boc-FS(X4)[Sta]A[Sta]-OMe) ?
Completion: 316

Prompt: What does the record list as IC50 for COC(=O)C[C@H](O)[C@H](CC(C)C)NC(=O)[C@H](C)NC(=O)C[C@H](O)[C@H](CC(C)C)NC(=O)[C@H](COC(C)(C)C)NC(=O)[C@H](Cc1ccccc1)NC(=O)OC(C)(C)C [SR 43297] (Boc-FS(tBu)[Sta]A[Sta]-OMe) ?
Completion: 2140

Prompt: What does the record list as IC50 for COC(=O)[C@H](CC(C)C)NC(=O)[C@H](C)NC(=O)C[C@H](O)[C@H](CC(C)C)NC(=O)C(NC(=O)[C@H](Cc1ccccc1)NC(=O)OC(C)(C)C)c1csc(C)n1 (stereo partly shown) [SR 43059] (Boc-F[X10][Sta]AL-OMe) ?
Completion: 3020

###

Can you tell me log10 of IC50 for the items I'm about to list?
Molecular target: human plasma renin activity (PRA) (Homo sapiens, UniProt P00797)
Construct: from tissue; host or cells: human plasma pool
Sequence (P00797 67-406): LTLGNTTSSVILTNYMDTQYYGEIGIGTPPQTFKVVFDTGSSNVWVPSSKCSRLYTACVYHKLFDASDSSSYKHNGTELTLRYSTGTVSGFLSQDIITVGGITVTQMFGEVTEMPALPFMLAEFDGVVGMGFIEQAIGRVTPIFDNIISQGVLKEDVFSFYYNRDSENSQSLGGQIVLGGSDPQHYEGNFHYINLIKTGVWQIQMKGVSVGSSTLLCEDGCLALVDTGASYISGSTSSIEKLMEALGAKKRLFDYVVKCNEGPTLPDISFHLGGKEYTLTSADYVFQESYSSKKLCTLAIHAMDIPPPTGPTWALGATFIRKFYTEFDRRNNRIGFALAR
Assay: Inhibition of human plasma renin activity (PRA) in vitro, angiotensin I released measured by radioimmunoassay
Assay type: biochemical
Settings: read-out: Inhibition of human PRA -log IC50 M pH 7.4 (converted)
Starred links: 1 amine or outer side, 2 acyl side, 3 side chain; linkers in the order of their positions; H or OH if unused. Non-standard residues stand in square brackets, D forms with d. Residues, ends and D or L forms follow the SMILES beside them. ξ: configuration not given here. *: point of attachment. X9 = CCn1cnc(C[C@H](N[*:1])C(=O)[*:2])c1; Sta = CC(C)C[C@H](N)[C@@H](O)CC(=O)O; Gly(cPent) = N[C@H](C(=O)O)C1CCCC1; Phg = N[C@H](C(=O)O)c1ccccc1; ξ3Pal = NC(Cc1cccnc1)C(=O)O; ξ4Pal = NC(Cc1ccncc1)C(=O)O; Boc = CC(C)(C)OC(=O)*; OBn = c1ccc(CO*)cc1
Quick note: numbers are log10 of IC50, with nM as the unit.

Prompt: What does the record list as log10 of IC50 for COC(=O)C[C@H](O)[C@H](CC(C)C)NC(=O)[C@H](C)NC(=O)C[C@H](O)[C@H](CC(C)C)NC(=O)C(Cc1cccnc1)NC(=O)[C@H](Cc1ccccc1)NC(=O)OC(C)(C)C (stereo partly drawn) [SR 43429, Boc-Phe-(Pyr-3)Ala-Sta-Ala-Sta-OMe] (Boc-F[ξ3Pal][Sta]A[Sta]-OMe) ?
Completion: 2.62

Prompt: What does the record list as log10 of IC50 for COC(=O)[C@H](Cc1ccccc1)NC(=O)[C@H](CC(C)C)NC(=O)C[C@H](O)[C@H](CC(C)C)NC(=O)C(Cc1cccnc1)NC(=O)[C@H](Cc1ccccc1)NC(=O)OC(C)(C)C (stereo partly drawn) [SR 43064, Boc-Phe-(Pyr-3)Ala-Sta-Leu-Phe-OMe] (Boc-F[ξ3Pal][Sta]LF-OMe) ?
Completion: 2.50

Prompt: What does the record list as log10 of IC50 for COC(=O)C[C@H](O)[C@H](CC(C)C)NC(=O)[C@H](C)NC(=O)C[C@H](O)[C@H](CC(C)C)NC(=O)[C@@H](NC(=O)[C@H](Cc1ccccc1)NC(=O)OC(C)(C)C)c1ccccc1 [SR 42823, Boc--Phe--Phg--Sta--Ala--Sta--OMe] (Boc-F[Phg][Sta]A[Sta]-OMe) ?
Completion: 1.97

Prompt: What does the record list as log10 of IC50 for COC(=O)C[C@H](O)[C@H](CC(C)C)NC(=O)[C@H](C)NC(=O)C[C@H](O)[C@H](CC(C)C)NC(=O)[C@@H](NC(=O)[C@H](Cc1ccccc1)NC(=O)OC(C)(C)C)C1CCCC1 [SR 43554, Boc--Phe--Cpg--Sta--Ala--Sta--OMe] (Boc-F[Gly(cPent)][Sta]A[Sta]-OMe) ?
Completion: 1.57

Prompt: What does the record list as log10 of IC50 for COC(=O)[C@H](CC(C)C)NC(=O)[C@H](C)NC(=O)C[C@H](O)[C@H](CC(C)C)NC(=O)[C@H](CC(=O)OCc1ccccc1)NC(=O)[C@H](Cc1ccccc1)NC(=O)OC(C)(C)C [SR 42926, Boc-Phe-(PhCH2)Asp-Sta-Ala-Leu-OMe] (Boc-FD(OBn)[Sta]AL-OMe) ?
Completion: 2.60

Prompt: What does the record list as log10 of IC50 for COC(=O)[C@H](Cc1ccccc1)NC(=O)[C@H](CC(C)C)NC(=O)C[C@H](O)[C@H](CC(C)C)NC(=O)C(Cc1ccncc1)NC(=O)[C@H](Cc1ccccc1)NC(=O)OC(C)(C)C (stereo partly drawn) [SR 43144, Boc-Phe-(Pyr-4)Ala-Sta-Leu-Phe-OMe] (Boc-F[ξ4Pal][Sta]LF-OMe) ?
Completion: 3.12

Prompt: What does the record list as log10 of IC50 for CCn1cnc(C[C@H](NC(=O)[C@H](Cc2ccccc2)NC(=O)OC(C)(C)C)C(=O)N[C@@H](CC(C)C)[C@@H](O)CC(=O)N[C@@H](C)C(=O)N[C@@H](CC(C)C)[C@@H](O)CC(=O)OC)c1 [SR 43391, Boc--Phe--(tauEt)His--Sta--Ala--Sta--OMe] (Boc-F[X9][Sta]A[Sta]-OMe) ?
Completion: 1.81
